# Test system: KB cell line
# Test name: MTT toxicity assay, small molecule delivery to cultured cells (KB)
# Settings: Homo sapiens, KB, 5 h, read-out: IC50 (μM of doxorubicin)
Measured endpoint: IC50

# Molecule, Target under test, Measured endpoint, Test result
rows = [
    ("COc1cccc2c1C(=O)c1c(O)c3c(c(O)c1C2=O)C[C@@](O)(C(=O)CO)C[C@@H]3O[C@H]1C[C@H](N)[C@H](O)[C@H](C)O1 [doxorubicin]", "KB cell line", "IC50", "~0.1 µM"),
]
